Cited source for all entries: paper PMC9090415

# measured_on: P. falciparum apicoplast DNA polymerase (Pf-apPOL) (Plasmodium falciparum, UniProt Q8ILY1)
# Sequence (Q8ILY1 entry or part of it): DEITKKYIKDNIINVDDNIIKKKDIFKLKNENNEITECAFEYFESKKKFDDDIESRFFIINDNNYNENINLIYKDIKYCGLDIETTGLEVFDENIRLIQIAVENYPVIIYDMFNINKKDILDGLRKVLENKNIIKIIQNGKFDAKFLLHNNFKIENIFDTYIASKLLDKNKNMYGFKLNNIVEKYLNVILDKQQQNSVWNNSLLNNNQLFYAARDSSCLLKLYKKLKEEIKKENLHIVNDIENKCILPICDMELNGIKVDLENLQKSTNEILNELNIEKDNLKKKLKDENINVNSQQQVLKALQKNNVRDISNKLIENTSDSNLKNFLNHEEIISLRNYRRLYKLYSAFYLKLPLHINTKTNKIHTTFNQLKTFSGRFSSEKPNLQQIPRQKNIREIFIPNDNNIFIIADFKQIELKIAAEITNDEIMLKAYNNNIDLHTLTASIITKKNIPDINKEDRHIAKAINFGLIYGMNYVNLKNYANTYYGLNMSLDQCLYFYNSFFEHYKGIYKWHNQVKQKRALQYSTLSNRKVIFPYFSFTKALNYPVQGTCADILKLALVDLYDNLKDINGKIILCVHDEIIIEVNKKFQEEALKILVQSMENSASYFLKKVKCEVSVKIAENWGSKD
# test_summary: Fluorescence-based high-throughput DNA polymerase assay (molecular beacon), primary screen and dose-response;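 as to % inhibition ApPOL 90': test concentration in µM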
# Format: biochemical
# run_parameters: conc. 80; 90'; DRC-2
Think of 70% as a floor: if % inhibition ApPOL 90' stands on it or above, it is satisfied; beneath it, not satisfied.

Here are 5 molecules together with their reported answers.
*Q* Determine whether this molecule has % inhibition ApPOL 90' no lower than 70%: "Cc1cc(C)c(O)c(/N=C/c2cc([N+](=O)[O-])cc(Br)c2O)c1"
*A* satisfied

*Q* Determine whether this molecule has % inhibition ApPOL 90' no lower than 70%: "O=C(Nc1cccc(Cl)c1)Nc1nnc(-c2ccncc2)s1"
*A* not satisfied

*Q* Determine whether this molecule has % inhibition ApPOL 90' no lower than 70%: "O=C(CSc1nnc(-c2ccncc2)[nH]1)c1ccc(O)c(O)c1"
*A* satisfied

*Q* Determine whether this molecule has % inhibition ApPOL 90' no lower than 70%: "COc1ccc(C=C2Oc3c(ccc4c3CN(c3ccc5c(c3)OCO5)CO4)C2=O)cc1OC"
*A* not satisfied

*Q* Determine whether this molecule has % inhibition ApPOL 90' no lower than 70%: "Cc1cc(C)cc(-n2nc3c(c2NC(=O)c2ccco2)CSC3)c1"
*A* satisfied

Turning now to a further molecule:
*Q* Determine whether this molecule has % inhibition ApPOL 90' no lower than 70%: "O=C1C(=Cc2ccncc2)Oc2c1ccc1c2CN(Cc2ccc3c(c2)OCO3)CO1"
*A* not satisfied

----------
# measured_on: P. falciparum apicoplast DNA polymerase (Pf-apPOL) (Plasmodium falciparum, UniProt Q8ILY1)
# test_summary: Fluorescence-based high-throughput DNA polymerase assay (molecular beacon), primary screen and dose-response;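 as to % inhibition Apol 40': compound concentration given in µM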
# Type: biochemical
# run_parameters: DRC-2; 40'; concentration 40
Recorded % inhibition Apol 40' for the following compounds
# output: bare number, implied unit %

*Q* I'd like to know its % inhibition Apol 40'. The compound in question is "N#Cc1c(C2CCCCC2)nc(Sc2ccc(C(F)(F)F)cc2[N+](=O)[O-])[nH]c1=O"
*A* 75

*Q* I'd like to know its % inhibition Apol 40'. The compound in question is COc1ccc(C)cc1NC(=O)Cn1ccc2c(=O)[nH]ccc21 [Molecule 15, COc1ccc(cc1NC(=O)Cn1ccc2c1cc[nH]c2=O)C]
*A* 60

*Q* I'd like to know its % inhibition Apol 40'. The compound in question is "COc1cccc(Oc2c(C(F)(F)F)oc3cc(OC(=O)N(C)C)ccc3c2=O)c1"
*A* 50

Next:
*Q* I'd like to know its % inhibition Apol 40'. The compound in question is "O=C(O)c1nc(-c2ccccc2)nc2c1OCO2"
*A* 69

*Q* I'd like to know its % inhibition Apol 40'. The compound in question is "O=C1CCCC2=C1C(c1ccccn1)C1=C(CCCC1=O)O2"
*A* 46

*Q* I'd like to know its % inhibition Apol 40'. The compound in question is "CC(=O)c1cc2c(N)c(/C(N)=N/C#N)sc2nc1C"
*A* 48

*Q* I'd like to know its % inhibition Apol 40'. The compound in question is "Cc1ccc(CCNC(=O)c2cnn3c(O)c(Cc4ccccc4F)c(C)nc23)cc1"
*A* 67

*Q* I'd like to know its % inhibition Apol 40'. The compound in question is "Cc1cc(C)c2c(O)nc(SCC(=O)c3ccc(O)c(O)c3)nc2n1"
*A* 72

*Q* I'd like to know its % inhibition Apol 40'. The compound in question is "C=CC1=C(C)c2cc3[nH]c(cc4nc(cc5[nH]c(cc1n2)c(C)c5CCC(=O)O)C(CCC(=O)O)=C4C)c(C)c3C=C"
*A* 69

*Q* I'd like to know its % inhibition Apol 40'. The compound in question is "CC1(C)CC(=O)C2=C(C1)OC1=C(C(=O)CC(C)(C)C1)C2c1ccc(O)cc1"
*A* 52

*Q* I'd like to know its % inhibition Apol 40'. The compound in question is "COc1cccc(C(=O)N2CCc3c(nc4cc(-c5ccccc5)[nH]n4c3=O)C2)c1OC"
*A* 69

*Q* I'd like to know its % inhibition Apol 40'. The compound in question is "CCOc1cccc2cc(C(=O)Nc3nnc(-c4ccno4)o3)oc12"
*A* 64

*Q* I'd like to know its % inhibition Apol 40'. The compound in question is CCOc1nc2cccc(C(=O)OC(C)OC(=O)OC3CCCCC3)c2n1Cc1ccc(-c2ccccc2-c2nnn[nH]2)cc1 (centres unmarked)
*A* 74

*Q* I'd like to know its % inhibition Apol 40'. The compound in question is CCCCSc1nnc2c(n1)OC(c1ccc([N+](=O)[O-])o1)Nc1ccccc1-2 (centres unmarked)
*A* 57

*Q* I'd like to know its % inhibition Apol 40'. The compound in question is "COc1cc(NC(=O)c2ccccc2)c(OC)cc1NC(=O)Cc1cccs1"
*A* 61

*Q* I'd like to know its % inhibition Apol 40'. The compound in question is "CC(C)(C)c1cc(C(=O)C(C#N)=NNc2cccc(Cl)c2)no1"
*A* 56

*Q* I'd like to know its % inhibition Apol 40'. The compound in question is "Cc1nc(C)c2c(n1)N(CC1CCCCC1)C(=O)CC2"
*A* 42

----------
# measured_on: UniProtKB Q8ILY1
# test_summary: Fluorescence-based high-throughput DNA polymerase assay (molecular beacon), primary screen and dose-response
# Assay type: biochemical
# run_parameters: DRC-2; 180'; concentration 20
Entry class follows % inhibition apPOL 180': low = under 30%, intermediate = from 30% up to 60%, high = 60% and over

*Q* Lab note: which band did O=C(Cc1cc(=O)[nH]c(SCc2ccccc2)n1)Nc1ccc2c(c1)OCO2 [Molecule 46] land in?
*A* intermediate

*Q* Lab note: which band did O=C(CSc1nnc(-c2ccco2)[nH]1)c1ccc(Cl)cc1 [KU0029065] land in?
*A* low

----------
# measured_on: UniProt Q8ILY1
# test_summary: Fluorescence-based high-throughput DNA polymerase assay (molecular beacon), primary screen and dose-response
# Format: biochemical
# run_parameters: DRC-1; 90'; concentration 40
measure_name: % inhibition Apol 90' (%)
# output: bare number, implied unit %

*Q* I'd like to know its % inhibition Apol 90'. The compound in question is "COc1cc(/C=C2\S/C(=N/C(C)=O)NC2=O)cc(Br)c1OCC(=O)O"
*A* 36.5505

*Q* I'd like to know its % inhibition Apol 90'. The compound in question is "CCCCc1ccc(NC(=O)CSc2nc(O)c(C#N)c(C3CCCCC3)n2)c(C)c1"
*A* 94.9708

*Q* I'd like to know its % inhibition Apol 90'. The compound in question is "Cc1cccc(-c2nnc3ccc(NS(=O)(=O)c4ccc(C)c(C)c4)nn23)c1"
*A* 74.666

Next:
*Q* I'd like to know its % inhibition Apol 90'. The compound in question is "O=C(Nc1ncc([N+](=O)[O-])s1)c1ccc2c(c1)C(=O)N(N1C(=O)c3ccccc3C1=O)C2=O"
*A* 49.9666

----------
# measured_on: P. falciparum apicoplast DNA polymerase (Pf-apPOL) (Plasmodium falciparum, UniProt Q8ILY1)
# test_summary: Fluorescence-based high-throughput DNA polymerase assay (molecular beacon), primary screen and dose-response;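 as to % inhibition Apol 40': compound concentration given in µM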
# Assay type: biochemical
# run_parameters: DRC-2, 40', concentration 5
Recorded % inhibition Apol 40' for the following compounds
# output: bare number, implied unit %

Solved entries:
*Q* I'd like to know its % inhibition Apol 40'. The compound in question is O=C(Nc1nnc(-c2cccs2)o1)c1ccc([N+](=O)[O-])o1 [Molecule 74]
*A* 13

*Q* I'd like to know its % inhibition Apol 40'. The compound in question is COc1ccc(C(=O)Nc2cccc(-c3nc4ncccc4o3)c2)cc1[N+](=O)[O-] [KU0063313]
*A* 10

*Q* I'd like to know its % inhibition Apol 40'. The compound in question is O=C(Nc1nnc(-c2ccno2)o1)c1ccc2c(c1)OCO2 [KU0171343]
*A* -4.25

*Q* I'd like to know its % inhibition Apol 40'. The compound in question is CCOC(=O)C(NCc1ccco1)(NC(=O)c1ccco1)C(F)(F)F (centres unmarked) [KU0276119]
*A* 5

// moving on: another record for % inhibition Apol 40'
*Q* I'd like to know its % inhibition Apol 40'. The compound in question is O=C(O)CC1SC(c2ccc3c(c2)OCO3)=NC1=O (centres unmarked) [Molecule 69, OC(=O)CC1SC(=NC1=O)c1ccc2c(c1)OCO2]
*A* 7

----------
Recorded % inhibition Apol 40' for the following molecules
# measured_on: P. falciparum apicoplast DNA polymerase (Pf-apPOL) (Plasmodium falciparum)
# test_summary: Fluorescence-based high-throughput DNA polymerase assay (molecular beacon), primary screen and dose-response
# Assay type: biochemical
# run_parameters: conc. 5; 40'; DRC-2
# output: bare number, implied unit %

*Q* I'd like to know its % inhibition Apol 40'. The molecule in question is O=C(CSc1nc2ccccc2s1)Nc1ncc([N+](=O)[O-])s1 [KU0019667]
*A* -10

*Q* I'd like to know its % inhibition Apol 40'. The molecule in question is O=C1NCCCn2cc(S(=O)(=O)Nc3ccccc3)cc21 [KU0214835]
*A* 8

*Q* I'd like to know its % inhibition Apol 40'. The molecule in question is O=C(CSc1nnc(-c2ccncc2)[nH]1)c1ccc(O)c(O)c1 [Molecule 89]
*A* 62

Next:
*Q* I'd like to know its % inhibition Apol 40'. The molecule in question is O=c1cc(-c2ccccc2Cl)oc2c(NS(=O)(=O)c3cc(Cl)cc(Cl)c3O)ccc(O)c12 [KU0104277]
*A* -1

*Q* I'd like to know its % inhibition Apol 40'. The molecule in question is COCC(=O)Nc1c(-c2cccc(F)c2)nc2cc(C)ccn12 [Molecule 44, COCC(=O)Nc1c(nc2n1ccc(c2)C)c1cccc(c1)F]
*A* 27
